- TESTED_SYSTEM: human SCD5 (Homo sapiens)
- Construct: expressed in transfected cells; host or cells: yeast strain with OLE1 deleted, plasmid-borne human SCD5 (selected in SD-Ura)
- ASSAY_DETAILS: Growth inhibition of yeast strain expressing human SCD5 as sole desaturase (OLE1 deleted), OD600 readout
- Assay type: cell-based
- CONDITION_DESCRIPTION: yeast strain expressing human SCD5 as sole desaturase; growth (OD600) after 40 h at 30° C.; read-out: SCD5 IC50
pIC50: −log10 of the molar value.
REPORTED_METRIC: pIC50

INSERT INTO results (compound_string, reported_metric, observed_value) VALUES
  ('Cn1nc(C(=O)Nc2ccc(Oc3ccc(F)c(Cl)c3)cn2)ccc1=O', 'pIC50', 5.76);

I. Cn1nc(C(=O)Nc2ccc(Cc3cc(Cl)cc(C#N)c3)cn2)ccc1=O
II. O=C(Nc1ccc(Cc2cccc(F)c2)cn1)c1cc(Br)sn1
Incoming: Given I and given II , which shows the smaller recorded pIC50? # respond with the chosen item's label
Outgoing: II

----------
- TESTED_SYSTEM: human SCD5 (Homo sapiens, UniProt Q86SK9)
- Construct: expressed in transfected cells; host or cells: yeast strain with OLE1 deleted, plasmid-borne human SCD5 (selected in SD-Ura)
- Sequence (Q86SK9 1-330): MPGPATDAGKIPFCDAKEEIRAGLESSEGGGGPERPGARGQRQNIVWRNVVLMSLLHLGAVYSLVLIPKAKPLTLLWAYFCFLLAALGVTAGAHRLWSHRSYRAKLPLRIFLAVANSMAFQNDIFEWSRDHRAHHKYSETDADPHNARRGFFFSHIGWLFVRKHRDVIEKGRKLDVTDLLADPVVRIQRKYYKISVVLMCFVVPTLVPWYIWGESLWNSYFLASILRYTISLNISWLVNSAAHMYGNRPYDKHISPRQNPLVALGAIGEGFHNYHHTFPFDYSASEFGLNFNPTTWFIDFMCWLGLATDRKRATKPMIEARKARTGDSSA
- ASSAY_DETAILS: Growth inhibition of yeast strain expressing human SCD5 as sole desaturase (OLE1 deleted), OD600 readout
- Type: cell-based
- CONDITION_DESCRIPTION: yeast strain expressing human SCD5 as sole desaturase; growth (OD600) after 40 h at 30° C.; read-out: SCD5 IC50
pIC50: −log10 of the molar value.
REPORTED_METRIC: pIC50

a. CN1N=C(C(=O)Nc2ccc(Cc3ccc(Cl)s3)nn2)CCC1=O
b. CC(=O)c1ccc(C(=O)Nc2ccc(Cc3ccc(F)c(F)c3)cn2)nc1
c. Cn1cc(C(=O)Nc2ccc(C#CC3CC3)cn2)ccc1=O
Incoming: Re-order the entries listed above so their pIC50 values fall from first to last. Returns: the labels arranged in the requested order.
Outgoing: b, a, c
(b: 5.92, a: 5.69, c: 5.01)

----------
- TESTED_SYSTEM: human SCD1 (Homo sapiens, UniProt O00767)
- Construct: expressed in transfected cells; host or cells: yeast strain with OLE1 deleted, plasmid-borne human SCD1 (selected in SD-Ura)
- Sequence (O00767 1-359): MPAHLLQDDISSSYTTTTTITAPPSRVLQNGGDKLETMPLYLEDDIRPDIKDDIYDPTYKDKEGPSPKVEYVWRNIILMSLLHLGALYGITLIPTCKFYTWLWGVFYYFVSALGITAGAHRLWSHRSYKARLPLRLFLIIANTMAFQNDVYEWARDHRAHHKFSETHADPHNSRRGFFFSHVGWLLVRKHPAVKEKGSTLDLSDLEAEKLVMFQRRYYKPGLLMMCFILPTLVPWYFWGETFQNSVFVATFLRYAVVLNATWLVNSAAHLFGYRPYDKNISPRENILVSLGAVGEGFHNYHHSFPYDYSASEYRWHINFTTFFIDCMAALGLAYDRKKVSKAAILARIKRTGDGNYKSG
- ASSAY_DETAILS: Growth inhibition of yeast strain expressing human SCD1 as sole desaturase (OLE1 deleted), OD600 readout
- Type: cell-based
- CONDITION_DESCRIPTION: yeast strain expressing human SCD1 as sole desaturase; growth (OD600) after 40 h at 30° C.; read-out: SCD1 IC50
pIC50: −log10 of the molar value.
REPORTED_METRIC: pIC50

1. Cn1cc(C(=O)Nc2ccc(Cc3cc(F)ccc3F)cn2)ccc1=O [Compound 565]
2. CC(=O)c1ccc(C(=O)Nc2ccc(Cc3cccc(Cl)c3)cn2)nn1 [Compound 517]
Incoming: Between 1 and 2 , which one shows the larger pIC50 value? # respond with the chosen item's label
Outgoing: 2

1. Cn1cc(C(=O)Nc2ccc(Oc3cc(F)cc(Cl)c3)cn2)ccc1=O [Compound 589]
2. Cn1nc(C(=O)Nc2ccc(Cc3cc(F)cc(Cl)c3)cn2)ccc1=O [Example 40]
Incoming: Given 1 and given 2 , which shows the smaller recorded pIC50? # respond with the chosen item's label
Outgoing: 1
(1: 5.64, 2: 6.96)

P. N#Cc1ccc(C(=O)Nc2ccc(CNc3cccc(Cl)c3)cn2)nc1 [Compound 498]
Q. O=C(Nc1ccc(CO)nc1)c1ccc(Cc2cccc(Cl)c2)cn1 [Compound 132]
R. Cn1nc(C(=O)Nc2ccc(Cc3cc(F)cc(C(F)F)c3)cn2)ccc1=O [Compound 562]
S. Cn1ncc2cc(-c3ccc(Cc4cccc(F)c4)cn3)ccc21 [Compound 153]
T. Cn1nccc(C(=O)Nc2ccc(Cc3cccc(F)c3)cn2)c1=O [Compound 546]
Incoming: Hey, quick one: sort these by pIC50, low to high? Returns: the labels arranged in the requested order.
Outgoing: S, P, R, T, Q
